- Test system: P388
- test description: In vivo antileukemic activity against P388 lymphocytic leukemia at a dose of 25 mg/kg administered intraperitoneally expressed as log of the number of tumor cells (cell kill)
- Format: ADME, organism-based
- Set-up: dose 25 mg/kg, route intraperitoneal
- condition notes: mouse, ip

| molecule | assayed target | KE |
| --- | --- | --- |
| CC(C)NC(=O)OCC1=C(COC(=O)NC(C)C)C(c2ccccc2)[N+](C)([O-])C1 (centres undefined) | P388 | -1.5 |
| CNC(=O)OCC1=CC[N+](C)([O-])C1COC(=O)NC (centres undefined) | P388 | -1.23 |
| CC(C)NC(=O)OCC1=C(COC(=O)NC(C)C)C(c2ccccc2)N(C)C1 (centres undefined) | P388 | 0 |
| CC(C)NC(=O)OCC1=C(COC(=O)NC(C)C)C(C)(C)[N+](C)([O-])C1c1ccccc1 (centres undefined) | P388 | -1.64 |
